This section presents compounds with their documented growth values.
- System: SK-OV-3 ovarian
- assayProtocol: NCI-60 one-dose screen, 48 h (100 = growth as untreated, 0 = no growth, -100 = all killed)
- conditionsUsed: 10 µM unless noted
About 83,000 compounds went through this panel and 20% of them were active in at least one assay; those are over-represented in the sample as a whole. Activity calls are given as the source filed them. The calls were made as follows: active = growth percent below 10; inactive = the rest.

[
  {
    "compound": "CCC1(C2CCCC2)NC(=O)NC1=O (stereo unspecified)",
    "growth": "112% (inactive)"
  },
  {
    "compound": "O=c1ssc(Cl)c1-c1ccccc1",
    "growth": "118% (inactive)"
  },
  {
    "compound": "O=C(Nc1ccc(Cl)cc1)Nc1ccc(Cl)c(C(F)(F)F)c1",
    "growth": "-27.1% (active)"
  },
  {
    "compound": "Cc1cccc(NC(=O)N/C(N)=N/c2nc(C)c(C)s2)c1",
    "growth": "65.6% (inactive)"
  },
  {
    "compound": "OC(COc1ccccc1Cl)COc1ccccc1Cl",
    "growth": "107% (inactive)"
  },
  {
    "compound": "N#C/C(=C/C=C/c1cccc(Cl)c1)S(=O)c1ccccc1 (stereo unspecified)",
    "growth": "19.6% (inactive)"
  },
  {
    "compound": "COc1ccc2[nH]c(O)c(C(=Nc3ccc(N(C)C(=O)CN4CCN(C)CC4)cc3)c3ccccc3)c2c1",
    "growth": "5.77% (active)"
  },
  {
    "compound": "CCN(CC)S(=O)(=O)c1cccc(-c2ccc3c(NC(=O)C4CC4)n[nH]c3c2)c1",
    "growth": "28.6% [6.25 µM] (inactive)"
  },
  {
    "compound": "CC1(C)CC[C@]2(C(=O)N3CCOCC3)CC[C@]3(C)C(=CC[C@@H]4[C@@]5(C)CC[C@H](OC(=O)c6cccnc6)C(C)(C)[C@@H]5CC[C@]43C)[C@@H]2C1",
    "growth": "88.2% (inactive)"
  },
  {
    "compound": "Cc1cc(NCc2cc(Nc3ccnc4cc(Cl)ccc34)ccc2F)nc(N2CCN(c3ccccc3)CC2)n1",
    "growth": "55.1% (inactive)"
  },
  {
    "compound": "Cc1ccc(N2CCN(C(=S)c3cccs3)CC2)cc1",
    "growth": "106% (inactive)"
  },
  {
    "compound": "O=C1/C(=C/c2ccc(F)cc2)C=C(c2ccccc2)N1CCc1ccccc1",
    "growth": "29.1% (inactive)"
  },
  {
    "compound": "O=C(c1ccccc1)N1N=C(c2ccccc2)CC1c1nnc2n(Cc3ccccc3)c(=O)c3c4c(sc3n12)CCCC4 (stereo unspecified)",
    "growth": "106% (inactive)"
  },
  {
    "compound": "Cc1cccc(Cc2cnc(NC(=O)/C=C/c3ccco3)s2)c1",
    "growth": "33% (inactive)"
  },
  {
    "compound": "CC(C)C(NC(=O)C1(NC(=O)OCc2ccccc2)CCCC1)C(=O)O (stereo unspecified)",
    "growth": "96.2% (inactive)"
  },
  {
    "compound": "FC(F)(F)c1cc(Nc2ccc3cc(OCCCN4CCOCC4)ccc3n2)ccc1Cl",
    "growth": "58.3% (inactive)"
  },
  {
    "compound": "CC/C=C\\CCC/C=C1/C(=O)C=C[C@@H]1C/C=C\\CCCC(=O)O",
    "growth": "124% (inactive)"
  },
  {
    "compound": "O=c1[nH]nc(-c2ccccc2)c2c(-c3ccccc3)onc12",
    "growth": "15.4% (inactive)"
  },
  {
    "compound": "CCCCCCN(CCCCCC)c1ccc(/C=C2/SC(=O)N(c3nc(N4CCCC4)nc(N4CCCC4)n3)C2=O)c(C)c1",
    "growth": "91.3% (inactive)"
  },
  {
    "compound": "O=C(Nc1ccc(Nc2ccncc2)cc1)c1ccc(C(=O)Nc2ccc(Nc3ccncc3)cc2)cc1",
    "growth": "68% (inactive)"
  },
  {
    "compound": "COC(=O)[C@]12CC[C@@H](C)[C@H](C)[C@@H]1C1=CC[C@@H]3[C@@]4(C)C(C=O)=C[C@@](C)(COC(C)=O)[C@@H]4[C@H](O)C[C@@]3(C)[C@]1(C)CC2",
    "growth": "6.14% (active)"
  }
]

###

This section presents compounds with their documented growth values.
- Tested on: PC-3 prostate
- assayProtocol: NCI-60 one-dose screen, 48 h (100 = growth as untreated, 0 = no growth, -100 = all killed)
- conditionsUsed: 10 µM unless noted
This is part of a sample that, as a whole, favours compounds with a hit. Of some 83,000 tested, about 20% had one in any assay.

[
  {
    "compound": "CS(=O)(=O)c1ccc(Nc2nc(N[C@H]3CCCC[C@H]3N)nc3cc[nH]c(=O)c23)cc1",
    "units": "%",
    "growth": 14.2
  },
  {
    "compound": "N=C1C(c2nc(-c3ccc(Br)cc3)cs2)=C(O)CN1CC1CCCO1 (stereo not given)",
    "units": "%",
    "growth": 7.86
  },
  {
    "compound": "CCCCCCCCCCCC(c1ccccc1)[N+](C)(C)C (stereo not given)",
    "units": "%",
    "growth": -18.8
  },
  {
    "compound": "COc1ccc(C2C(c3nn[nH]n3)=C(N)Oc3c2ccc2ccccc32)cc1 (stereo not given)",
    "units": "%",
    "growth": 65.5
  },
  {
    "compound": "O=C(/C=C/c1ccc(Cl)nc1)c1ccc(Cl)cc1Cl",
    "units": "%",
    "growth": 101
  }
]

###

- Test system: 786-0 renal
- assayProtocol: NCI-60 one-dose screen, 48 h (100 = growth as untreated, 0 = no growth, -100 = all killed)
- conditionsUsed: 10 µM unless noted
Compounds without any hit were thinned out: in the full panel of roughly 83,000, 20% have a hit.

[
  {
    "molecule": "O=C1/C(=C/c2ccccc2)CCc2nc3ccccc3c(/C=C/c3ccc(Cl)cc3)c21",
    "targetOfAssay": "786-0 renal",
    "units": "%",
    "growth": 99.8
  },
  {
    "molecule": "Cc1nc2ccccc2c(/C=C/c2ccc(Cl)cc2)c1C(=O)/C=C/c1ccc(F)cc1",
    "targetOfAssay": "786-0 renal",
    "units": "%",
    "growth": -24.7
  },
  {
    "molecule": "COC(=O)/C=C1\\S/C(=N\\NS(=O)(=O)c2ccc(C)cc2)N(c2ccccc2)C1=O",
    "targetOfAssay": "786-0 renal",
    "units": "%",
    "growth": 108
  }
]

###

- Tested on: SK-MEL-5 melanoma
- assayProtocol: NCI-60 one-dose screen, 48 h
- conditionsUsed: 10 µM unless noted
Compounds without any hit were thinned out: in the full panel of roughly 83,000, 20% have a hit. Calls of active or inactive are those of the source. How the source made its calls: active means growth percent below 10; inactive means the rest.
Possible outcomes: active, inactive

[
  {
    "compound": "O=C(/C=C/c1ccco1)c1ccc(Nc2nc(Nc3ccc(F)cc3)nc(Nc3ccc(Cl)cc3)n2)cc1",
    "classification": "inactive"
  },
  {
    "compound": "COc1ccc(N=Nc2ccc(O)c(=O)cc2)cc1",
    "classification": "active"
  },
  {
    "compound": "O=C(/C=C/c1c(Cl)nc2sccn12)c1nccs1",
    "classification": "inactive"
  },
  {
    "compound": "NC(=N\\N=C/c1cccc([N+](=O)[O-])c1)/C(N)=N\\N=C/c1cccc([N+](=O)[O-])c1",
    "classification": "inactive"
  },
  {
    "compound": "O=C1Nc2ccccc2/C1=C/c1cn(C(=O)c2c(Cl)cccc2Cl)c2ccccc12",
    "classification": "inactive"
  },
  {
    "compound": "CCN(CC)CCCC(C)Nc1c2ccc(Cl)cc2nc2ccc(O)cc12 (stereo not drawn)",
    "classification": "inactive"
  },
  {
    "compound": "N#Cc1c(-c2ccccn2)[nH]c(=S)[nH]c1=O",
    "classification": "inactive"
  },
  {
    "compound": "COc1cc(N=Nc2ccc(N)cc2)c(OC)cc1N=Nc1ccccc1.[Cl][Zn][Cl]",
    "classification": "inactive"
  },
  {
    "compound": "COc1nc2c(c(=O)n1C)CN(c1ccccc1)C(=O)CN2C",
    "classification": "inactive"
  },
  {
    "compound": "CC1(C)OC2C(CO[Si](C)(C)C(C)(C)C)OC(n3c(I)c(C#C[Si](C)(C)C)c(=O)[nH]c3=O)C2O1 (stereo not drawn)",
    "classification": "inactive"
  },
  {
    "compound": "Cc1cc(NCc2cc(Nc3ccnc4cc(Cl)ccc34)ccc2F)nc(N2CCN(c3ccccc3)CC2)n1",
    "classification": "inactive"
  },
  {
    "compound": "N#CC1=C(/N=C/c2ccccc2)Oc2c(ccc3ccccc23)C1c1ccccc1 (stereo not drawn)",
    "classification": "active"
  },
  {
    "compound": "COC(=O)c1c2c(c[n+]([O-])c1C)C(=O)C=CC2=O",
    "classification": "inactive"
  }
]
